I'd appreciate it if you could supply ROC Analysis AUC Senescence values for the items below.
Test system: p16-3MR mice
assayOverview: ROC analysis of discriminatory power of circulating microRNAs
Format: in vivo, mouse
measurementConditions: serum, RT-qPCR, DOX vs PBS; symbol after the number = significance
Marks after values point to notes of the source that are not given here.

Please review the following examples before continuing.
>>> recordedresult("miR-34a-3p: circulating microRNA biomarker, SEQ ID No. 59 (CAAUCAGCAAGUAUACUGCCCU; expressed or natural sequence; listed as Homo sapiens)")
"0.953*"
>>> recordedresult("miR-125a-5p: circulating microRNA biomarker, SEQ ID No. 90 (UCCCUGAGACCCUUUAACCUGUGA; expressed or natural sequence; listed as Homo sapiens)")
"0.742+"

// moving on: another record for ROC Analysis AUC Senescence
Indicate the recorded ROC Analysis AUC Senescence value for this substance: miR-345-5p: circulating microRNA biomarker, SEQ ID No. 83 (GCUGACUCCUAGUCCAGGGCUC; expressed or natural sequence; listed as Homo sapiens) 0.781*
